Listed compounds paired with reported pIC50
# test: Inhibition of RANKL-induced formation of multinuclear osteoclasts in mouse RAW264 cells after 4 days by p-NPP substrate based absorbance method
# Type: functional, cell-based
# condition details: RAW264.7, 96 h
API: returns pIC50 as number; meaning -log10 of concentration in mol/L.

structure smiles | pIC50
CC(C)=CCc1c(O)ccc2c3c([nH]c12)C(C)(C)[C@H]1C[C@]24CCCN2C(=O)[C@@]1(C3)NC4=O | 5.36

query: // lookup pIC50 for `CC(C)=CCc1c(O)ccc2c3c([nH]c12)C(C)(C)[C@@H]1C[C@@]24CCCN2C(=O)[C@]1(C3)NC4=O`
result: 5.77
